- Method Summary: yeast NALP1 reporter signal suppression – S. cerevisiae, luminescence, single concentration, NALP1 inhibitor project, confirmation (AID 488841)
- Experimental Setup: S. cerevisiae NALP1/ASC/Caspase-1 reporter, beta-gal luminescence; at 10 µM; hits give high values
Among all 1,400 compounds or so, about 380 (27%) were called active. The list shows a part of the results.
Is inhibition at least 50%? Then satisfied. If not, not satisfied.

| Compound | Class Name |
| --- | --- |
| C/C(=N\NC(=O)Cc1csc(N2CCOCC2)n1)c1ccccc1 | not satisfied |
| CC(C)CC(=O)/C(=C\c1ccc(Cl)cc1Cl)n1cncn1 | satisfied |
| CC1CCc2nc3sc4c(c3c(N)c2C1)CCCC4 (stereo not drawn) | satisfied |
| Cc1sc(-c2ccncc2)nc1OC(=O)c1ccccc1 | not satisfied |
| COC(=O)c1ccc(NC(=O)CN2C(=O)CNC2=O)cc1 | not satisfied |
| c1cnc2c(c1)ccc1cccnc12 | not satisfied |
| COc1ccc(NC(=O)CC2Sc3ncnn3C2=O)cc1 (stereo not drawn) | satisfied |
| N#CC(C#N)=C1C=CC=CN1/C(=C\c1ccccc1Cl)C(=O)c1ccccc1 | not satisfied |

====

- Method Summary: yeast NALP1 reporter signal suppression – S. cerevisiae, luminescence, single concentration, NALP1 inhibitor project, confirmation (AID 488841)
- Experimental Setup: S. cerevisiae NALP1/ASC/Caspase-1 reporter, beta-gal luminescence; at 10 µM
In all, about 1,400 compounds went through this assay and about 380 (27%) were called active.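 How the source made its calls: active means mean inhibition above 50% across duplicate retests at 10 µM; inactive means the rest.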 This is one part of the list.
Outcome codes: TRUE = active, FALSE = inactive

| Compound | Class Name |
| --- | --- |
| COc1ccccc1NC1=C(N2CCCCC2)C(=O)c2ccccc2C1=O | FALSE |
| CC(NCCC(c1ccccc1)c1ccccc1)c1ccccc1 (stereo not drawn) | TRUE |
| O=C(Nc1ccc(Cl)cc1)C1=Cc2ccccc2OC1 | FALSE |
